Reference for the values: PubChem BioAssay AID1159580

normalized growth listing for selected compounds.
protocol details: chemical genetic growth profiling, strain panel (AID 1159580);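 note: tested at 20 µM; growth read once vehicle control cultures reached saturation at 30 °C; 1 = growth at the plate median or of vehicle wells; lower values mean less growth of the strain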
condition parameters: S. cerevisiae deletion strains, growth OD, locus YOL078W, strain AVO1, hits give low values
Screen size: about 5,500 compounds; about 2,000 (36%) were called active. Another 18% or so got no clear call; they are omitted. Some of the results follow.
quantity name: normalized growth

INSERT INTO assay_data (input_smiles, reported_result) VALUES
  ('O=S(=O)(NC(=S)Nc1ccc(Cl)c(Cl)c1)c1ccccc1', '1 (inactive)'),
  ('Fc1cccc(Cl)c1CSc1n[nH]c(-c2cc(C(F)(F)F)cc(C(F)(F)F)c2)n1', '0.976 (inactive)'),
  ('CCCc1nc(-c2ccccn2)[nH]c(=O)c1CC1CC1', '0.951 (inactive)'),
  ('O=C(Nc1ccccc1Sc1ccc([N+](=O)[O-])cc1[N+](=O)[O-])C(Cl)(Cl)Cl', '0.978 (inactive)'),
  ('Cc1nc(-c2ccccn2)nc(N(C)Cc2ccccc2)c1Cl', '0.96 (inactive)');
